biological target: LHRH binding sites on EFO-27 human ovarian cancer cells (human); assay: competition with [125I-Tyr8]BRU-2477 on EFO-27 cells
Non-standard residues stand in square brackets, D forms with d. Primed or numbered codes have the meaning given here. DO3A10CM″ = chelating group at the N-terminus (X in the sequence tables); Bpa = N[C@@H](Cc1ccc(C(=O)c2ccccc2)cc1)C(=O)O; DO3A10CM = not defined here; Dnalg1 = not defined here; Ipgly = not defined here; Tha = not defined here; azaGly = NNC(=O)O; Sar = CNCC(=O)O
Readout name: EC50 (nM)

Record excerpt, results attached:
XHWSHXWXPX (DO3A10CM on N-terminus; AA1 Mednal2; AA6 Darg; AA8 Bpa4; AA10 azaGly-NH2) [BRU-3003]: 760
XXWSHXWXPX (DO3A10CM on N-terminus; AA1 Sar; AA2 4ClPhe; AA6 Darg; AA8 Bpa4; AA10 azaGly-NH2) [BRU-2719]: 630
XHWSHXWXPX (DO3A10CM on N-terminus; AA1 Sar; AA6 Darg; AA8 Aic2; AA10 azaGly-NH2) [BRU-2764]: 4310
XRWXHXWXPX (DO3A10CM on N-terminus; AA1 Dnal2; AA4 Amfe4; AA6 Darg; AA8 Bpa4; AA10 azaGly-NH2) [BRU-3115]: 150
DO3A10CM-G[Chgly]HWSHRW[Bpa]P[azaGly]-NH2 (reading uncertain; also: AA6 Darg prints R) [BRU-2872]: 2900

P. XRWSHXWXP (DO3A10CM on N-terminus; AA1 Dnal2; AA6 Darg; AA8 Bpa4; AA10 Mo2abn) [BRU-3020]
Q. XHWSHXWXPX (DO3A10CM on N-terminus; AA1 Dafe4; AA6 Darg; AA8 Bpa4; AA10 azaGly-NH2) [BRU-2810]
R. DO3A10CM-G[Ipgly]HWSH[dR]W[Bpa]P[azaGly]-NH2 (reading uncertain) [BRU-2790]
S. {DO3A10CM″}-[Sar][Tha]WS[Tha][dR]W[Bpa]P[azaGly]-NH2 (reading uncertain) [BRU-2762]
Query: # rank_down: sort by EC50, max first Answer by writing out the labels in the requested order.
Response: S, R, Q, P
(S: 15000 nM, R: 3300 nM, Q: 980 nM, P: 450 nM)

a. XRWXHXWXPX (DO3A10CM on N-terminus; AA1 Dnal2; AA4 Dpr (Dap in Table 26); AA6 Darg; AA8 Bpa4; AA10 azaGly-NH2) [BRU-2955]
b. DO3A10CM-G[Dnalg1]HWSH[dR]W[Bpa]P[azaGly]-NH2 (reading uncertain) [BRU-2770]
c. GXHWSHXWXPX (DO3A10CM-Gly (linker) on N-terminus; AA1 Sar; AA6 Darg; AA8 Bpa4; AA10 azaGly-NH2) [BRU-2717]
Query: # rank_down: sort by EC50, max first Answer by writing out the labels in the requested order.
Response: b, c, a

1. XRWSHXWXP (DO3A10CM on N-terminus; AA1 Dnal2; AA6 Darg; AA8 Bpa4; AA10 Aeh2 (aminoethanol; printed Ach2 in paragraph 138)) [BRU-2970]
2. XHWSHXWXPX (DO3A10CM on N-terminus; AA1 Sar; AA6 Darg; AA8 Dtyr(OBz); AA10 azaGly-NH2) [BRU-2819]
Query: Field: entry with larger EC50 (options 1 / 2 ). // caller expects the label of the chosen entry
Response: 2
